The origin of these recorded values is ChEMBL document CHEMBL6127088.

So I've got a bunch of compounds here, and I need their MIC values.
Test system: Bacillus subtilis
Experiment: Antimicrobial activity against Bacillus subtilis ATCC 20678 incubated for 18 hrs by broth microdilution method
Assay type: functional

Required: MIC, one value per compound below.
1. C/C(=N\NC(=N)N)c1csc(Nc2cc(F)cc(C(F)(F)F)c2)n1
2. C/C(=N\Nc1ccc(Cl)nn1)c1csc(Nc2cc(F)cc(C(F)(F)F)c2)n1
3. CC(C)(C)c1csc(Nc2cc(F)cc(C(F)(F)F)c2)n1
4. CS(=O)(=O)c1ccc(Nc2nc(-c3ccc(F)cc3F)cs2)cc1
5. Fc1cc(Nc2nc(-c3ccco3)cs2)cc(C(F)(F)F)c1
6. Fc1ccc(-c2csc(Nc3ccc(C(F)(F)F)cc3Cl)n2)c(F)c1
7. Fc1cc(Nc2nc(-c3cccnc3)cs2)cc(C(F)(F)F)c1

["4 mg/L", "256 mg/L", "4 mg/L", "256 mg/L", "4 mg/L", "256 mg/L", "256 mg/L"]

Required: MIC, one value per compound below.
1. C/C(=N\NC1=NCCN1)c1csc(Nc2cc(F)cc(C(F)(F)F)c2)n1
2. Fc1cc(Nc2nc(-c3ccncc3)cs2)cc(C(F)(F)F)c1
3. CCOc1ccc(Nc2nc(-c3ccc(F)cc3F)cs2)cc1C(F)(F)F
4. Oc1cc(Nc2nc(-c3ccc(F)cc3F)cs2)cc(C(F)(F)F)c1
5. CN[C@H](CC(C)C)C(=O)N[C@H]1C(=O)N[C@@H](CC(N)=O)C(=O)N[C@H]2C(=O)N[C@H]3C(=O)N[C@H](C(=O)N[C@H](C(=O)O)c4cc(O)cc(O)c4-c4cc3ccc4O)[C@H](O)c3ccc(c(Cl)c3)Oc3cc2cc(c3O[C@@H]2O[C@H](CO)[C@@H](O)[C@H](O)[C@H]2O[C@H]2C[C@](C)(N)[C@H](O)[C@H](C)O2)Oc2ccc(cc2Cl)[C@H]1O [VANCOMYCIN]
6. C/C(=N\Nc1ccc(C(=O)O)cn1)c1csc(Nc2cc(F)cc(C(F)(F)F)c2)n1

8 mg/L
256 mg/L
4 mg/L
0.5 mg/L
1 mg/L
64 mg/L

Required: MIC, one value per compound below.
1. Oc1ccc(Nc2nc(-c3ccc(F)cc3F)cs2)cc1C(F)(F)F
2. Fc1ccc(-c2csc(Nc3cccc(C(F)(F)F)c3)n2)c(F)c1
3. COc1ccc(Nc2nc(-c3ccc(F)cc3F)cs2)cc1C(F)(F)F

2 mg/L
2 mg/L
4 mg/L

* * *

Test system: Bacillus subtilis
Assay: Antimicrobial activity against Bacillus subtilis ATCC 20678 incubated for 18 hrs by broth microdilution method
Format: functional
Each record is given TRUE if its reported MIC is strictly below 20 µg/mL. Records at or above 20 µg/mL are given FALSE.

Observe how each entry below is paired with its result.
smiles.text | class
Cc1ccc(C(F)(F)F)cc1Nc1nc(-c2ccc(F)cc2F)cs1 | TRUE
Fc1ccc(-c2csc(Nc3ccncc3)n2)c(F)c1 | TRUE
Fc1cc(Nc2nc(C3CC3)cs2)cc(C(F)(F)F)c1 | TRUE
Fc1ccc(-c2csc(Nc3c(Cl)cc(C(F)(F)F)cc3Cl)n2)c(F)c1 | FALSE
Fc1ccc(-c2csc(Nc3ccc(Cl)c(C(F)(F)F)c3)n2)c(F)c1 | TRUE
COc1cc(Nc2nc(-c3ccc(F)cc3F)cs2)cc(C(F)(F)F)c1 | TRUE
Fc1cc(Nc2nc(-c3cc4ccccc4o3)cs2)cc(C(F)(F)F)c1 | TRUE
Fc1ccc(-c2csc(Nc3ccc(C(F)(F)F)cc3)n2)c(F)c1 | TRUE

In the record for Fc1cc(Nc2nc(-c3ccccn3)cs2)cc(C(F)(F)F)c1 , is MIC less than 20 µg/mL?
TRUE

In the record for Fc1ccc(-c2csc(Nc3cc(Cl)cc(C(F)(F)F)c3)n2)c(F)c1 , is MIC less than 20 µg/mL?
TRUE

In the record for Fc1ccc(-c2csc(Nc3ccc(C(F)(F)F)cc3F)n2)c(F)c1 , is MIC less than 20 µg/mL?
FALSE

In the record for C/C(=N\Nc1ccccn1)c1csc(Nc2cc(F)cc(C(F)(F)F)c2)n1 , is MIC less than 20 µg/mL?
TRUE

In the record for Fc1ccc(-c2csc(Nc3ccccn3)n2)c(F)c1 , is MIC less than 20 µg/mL?
FALSE
